All values here come from the NIST ThermoML archive (doi:10.1021/acs.jced.5b00662).

viscosity values for the compounds below.
- testParameters: 323.15 K; 101.33 kPa; Liquid; Concentric cylinders viscometry
Numbers after ± are expanded uncertainties.
Remember to put the unit after the number in your answer.

COCCOCCOCCOCCOC
1.995 ± 0.081 mPa·s
CCOCCOCCOCC
0.852 ± 0.036 mPa·s
CCOCCOCCO
2.099 ± 0.087 mPa·s

-- ask Tell me viscosity reported for "COCCOCCO"
-- reply 1.946 ± 0.079 mPa·s

-- ask Tell me viscosity reported for "COCCOCCOC"
-- reply 0.718 ± 0.03 mPa·s

----------
- testParameters: 318.15 K; 101.33 kPa; Liquid; Concentric cylinders viscometry
readoutType: viscosity (mPa·s)
All answers are understood in mPa·s, so give the number only.

Example results:
OCCOCCO
12.4
COCCOCCOCCOC
1.373
COCCOCCOCCOCCOC
2.183
OCCOCCOCCO
15.86
COCCOCCOC
0.767

Proceeding to the next molecule to report its viscosity.
-- ask Tell me viscosity reported for "CCOCCOCCOCC"
-- reply 0.916
